- TARGET SYSTEM: M-phase phosphoprotein 8 (Homo sapiens)
- ASSAY PROCEDURE: qHTS Validation Assay for Inhibitors for MPP8 Chromodomain Interactions with Methylated Histone Tails (AID 488949); further: nearly all actives have a fitted effect of over 55% in size
- ASSAY CONDITIONS: AlphaScreen MPP8 binding to H3K9me3 peptide; series mostly up to 114 µM
- Excerpt: As our understanding of epigenetics expands, it is becoming clear that players in this field are potential targets for drug development. […] Low-affinity protein-protein interactions (Kd in the single- to double-digit micromolar range) such as those discussed here have been very difficult to assay by traditional techniques such as fluorescence polarization or fluorescence resonance energy transfer. […]
Results filed as inconclusive are left out. The source made the active and inactive calls. The call rests on the fitted dose curve; in most records, active means well fitted inhibition curve with a large enough effect; inconclusive means small, poorly fitted or top-dose-only effect; inactive means no such curve, though single readings can be large or run the other way.
Log the outcome using a class from active, inactive

Query: Which result was noted for this molecule in the test: CCCN1CCCC(c2cccc(O)c2)C1 (stereo unspecified)
Response: inactive

Query: Which result was noted for this molecule in the test: `CCCN1CCC[C@@H](c2cccc(C#N)c2)C1`
Response: inactive

Query: Which result was noted for this molecule in the test: CCCCN1C2CCC1CC(OC(c1ccc(F)cc1)c1ccc(F)cc1)C2 (stereo unspecified)
Response: inactive

Query: Which result was noted for this molecule in the test: O=C(O)C1C2CCC(O2)C1C(=O)O (stereo unspecified)
Response: inactive

Query: Which result was noted for this molecule in the test: CCC(CO)NC(=O)[C@@H]1C=C2c3cccc4[nH]cc(c34)C[C@H]2N(C)C1 (stereo partly specified)
Response: inactive

Query: Which result was noted for this molecule in the test: C/C=C(/C)C(=O)O[C@H]1C(C)=C2C([C@@H]1OC(=O)CCCCCCC)[C@@](C)(OC(C)=O)C[C@@H](OC(=O)CCC)[C@@]1(O)[C@H]2OC(=O)[C@@]1(C)O (stereo partly specified)
Response: inactive

Query: Which result was noted for this molecule in the test: `C[C@H]1C2Cc3ccc(O)cc3[C@]1(C)CCN2CC1CC1`
Response: inactive

Query: Which result was noted for this molecule in the test: COc1ccc2c(c1O)-c1cccc3c1C(C2)N(C)CC3 (stereo unspecified)
Response: active

Query: Which result was noted for this molecule in the test: COC(=O)C(N)CCCN=C(N)N[N+](=O)[O-] (stereo unspecified)
Response: inactive

Query: Which result was noted for this molecule in the test: C[C@]12CC[C@H](OS(=O)(=O)O)CC1=CCC1C2CC[C@]2(C)C(=O)CC[C@@H]12 (stereo partly specified)
Response: inactive

Query: Which result was noted for this molecule in the test: `N#CC(=Cc1ccc(O)c(O)c1)C(N)=S`
Response: active

---

- ASSAY PROCEDURE: qHTS assay for cell viability of HEK293 cells (AID 743288); further: on the % scale 0 is the no-effect control and ±100 the full control effect; nearly all actives have a fitted effect of over 50% in size
- ASSAY CONDITIONS: ATP luminescence (CellTiter-Glo), 18 h; hits give low values
Records with an inconclusive call do not appear. Calls of active or inactive are those of the source. Calls come from the whole dose curve; as a rule, active = well fitted cell-killing curve with a large enough effect; inconclusive = small, poorly fitted or top-dose-only effect, or effect the other way; inactive = flat fitted curve, though single readings scatter.
QUANTITY NAME: max response

Query: Answer with the recorded max response for the compound listed here: `CCCSC(=O)Cl`
Response: -1.07% (inactive)

Query: Answer with the recorded max response for the compound listed here: C=C(C)C(=O)OCC1CO1 (stereo not given)
Response: 3.25% (inactive)

Query: Answer with the recorded max response for the compound listed here: `ClCBr`
Response: 4.95% (inactive)

Query: Answer with the recorded max response for the compound listed here: `COC1=CC(=O)O[C@@H](/C=C/c2ccc3c(c2)OCO3)C1`
Response: -22% (inactive)

Query: Answer with the recorded max response for the compound listed here: `CCCC(=O)Cl`
Response: 0.489% (inactive)

Query: Answer with the recorded max response for the compound listed here: `O=C(Cl)/C=C/C(=O)Cl`
Response: 1.49% (inactive)

Query: Answer with the recorded max response for the compound listed here: C1CCC2CCCCC2C1 (stereo not given)
Response: 0.933% (inactive)

Query: Answer with the recorded max response for the compound listed here: `COc1nc(NC(C)C)nc(NC(C)C)n1`
Response: -7.69% (inactive)

Query: Answer with the recorded max response for the compound listed here: `CCC(=O)Nc1ccc(Cl)c(Cl)c1`
Response: 1.17% (inactive)

Query: Answer with the recorded max response for the compound listed here: `CC(C)(C)OOC(C)(C)C`
Response: 1.9% (inactive)

Query: Answer with the recorded max response for the compound listed here: `C=C(Cl)Cl`
Response: -0.763% (inactive)

Query: Answer with the recorded max response for the compound listed here: `O=C(Cl)C(Cl)(Cl)Cl`
Response: -17% (inactive)

Query: Answer with the recorded max response for the compound listed here: `c1nc[nH]n1`
Response: -0.284% (inactive)

Query: Answer with the recorded max response for the compound listed here: `Nc1ccccc1Cl`
Response: -8.45% (inactive)

Query: Answer with the recorded max response for the compound listed here: `O=C(O)COc1cc(Cl)c(Cl)cc1Cl`
Response: -0.339% (inactive)

Query: Answer with the recorded max response for the compound listed here: `CNC(=O)N(C)c1nnc(C(C)(C)C)s1`
Response: -3.03% (inactive)

Query: Answer with the recorded max response for the compound listed here: `CCSC(=O)Cl`
Response: -2.01% (inactive)

Query: Answer with the recorded max response for the compound listed here: `O=NN(CCO)CCO`
Response: -4.1% (inactive)

Query: Answer with the recorded max response for the compound listed here: `C[C@]12CC[C@H]3[C@@H](CCC4=CC(=O)CC[C@@]43C)[C@@H]1CC[C@@H]2O`
Response: -9.57% (inactive)

Query: Answer with the recorded max response for the compound listed here: `O=C(O)COc1ccc(Cl)cc1Cl`
Response: 0.426% (inactive) [middle of 4 runs]

---

- ASSAY PROCEDURE: qHTS for differential inhibitors of proliferation of Plasmodium falciparum line 3D7 (AID 1876); further: potency means the concentration at half of the fitted maximal effect
- ASSAY CONDITIONS: P. falciparum 3D7 proliferation inhibition; series mostly up to 28.7 µM
Results filed as inconclusive are left out. Calls of active or inactive are those of the source. Calls follow the shape of the dose curve; as a rule, active = well fitted curve in the direction sought with a large enough effect; inconclusive = small, poorly fitted or top-dose-only effect, or another doubt; inactive = no such curve, though single readings can be large or run the other way.
QUANTITY NAME: Potency

Below, 4 compounds whose answers are already recorded.
- COMPOUND: "CCCN1CCc2cccc3c2C1Cc1ccc(O)c(O)c1-3 (configuration not stated)"
  TEST VALUE: "2510 nM (active)"
- COMPOUND: "CC12CCC3C(CCC4=C(O)C(=O)CCC43C)C1CCC2=O (configuration not stated)"
  TEST VALUE: "inactive"
- COMPOUND: "C=CCN1CCc2cccc3c2C1Cc1ccc(O)c(O)c1-3 (configuration not stated)"
  TEST VALUE: "2820 nM (active)"
- COMPOUND: "NCC#Cc1ccccc1"
  TEST VALUE: "inactive"

Query: Answer with the recorded Potency for the compound listed here: Oc1ccc2c3c1O[C@H]1[C@@H](O)CC[C@@]4(O)C(C2)N(CC2CCC2)CCC314 (some centres not stated)
Response: inactive

Query: Answer with the recorded Potency for the compound listed here: CCCCN1C2CCC1CC(OC(c1ccc(F)cc1)c1ccc(F)cc1)C2 (configuration not stated)
Response: 891 nM (active)

Query: Answer with the recorded Potency for the compound listed here: `C[C@H]1OC[C@@H](C[N+](C)(C)C)O1`
Response: inactive

---

- TARGET SYSTEM: Alpha-galactosidase (Coffea arabica) (UniProt Q42656)
- Sequence (Q42656 whole entry, looked up): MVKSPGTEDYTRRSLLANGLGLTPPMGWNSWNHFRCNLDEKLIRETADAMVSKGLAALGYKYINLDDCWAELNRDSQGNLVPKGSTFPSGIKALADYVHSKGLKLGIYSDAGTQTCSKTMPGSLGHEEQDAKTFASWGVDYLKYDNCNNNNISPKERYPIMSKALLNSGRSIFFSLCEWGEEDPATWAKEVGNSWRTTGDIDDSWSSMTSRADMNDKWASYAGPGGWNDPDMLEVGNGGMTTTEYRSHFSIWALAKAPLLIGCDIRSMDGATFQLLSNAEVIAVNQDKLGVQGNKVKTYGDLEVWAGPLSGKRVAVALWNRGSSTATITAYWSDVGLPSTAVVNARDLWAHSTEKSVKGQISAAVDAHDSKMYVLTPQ
- ASSAY PROCEDURE: Counterscreen for Glucocerebrosidase Inhibitors: qHTS Assay for Coffee Bean alpha-Galactosidase at pH 4.5 (AID 957);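 further: plate controls were enzyme alone for no effect and no enzyme for full effect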
- ASSAY CONDITIONS: purified coffee bean alpha-galactosidase, fluorogenic substrate; series mostly up to 76.9 µM
Active and inactive are the calls of the source. Calls come from the whole dose curve; as a rule, active = well fitted curve in the direction sought with a large enough effect; inconclusive = small, poorly fitted or top-dose-only effect, or another doubt; inactive = no such curve, though single readings can be large or run the other way.

- SMILES REPR: "CCc1c(C(=O)OC)ncc2[nH]c3cc(OC)c(OC)cc3c12"
  TARGET SYSTEM: "Alpha-galactosidase (Coffea arabica) (UniProt Q42656)"
  outcome: "inactive"
- SMILES REPR: "NC[C@H](O)c1ccc(O)cc1"
  TARGET SYSTEM: "Alpha-galactosidase (Coffea arabica) (UniProt Q42656)"
  outcome: "inactive"
- SMILES REPR: "Cc1cc(N)c2ccccc2[n+]1CCCCCCCCCC[n+]1c(C)cc(N)c2ccccc21"
  TARGET SYSTEM: "Alpha-galactosidase (Coffea arabica) (UniProt Q42656)"
  outcome: "inactive"

---

- TARGET SYSTEM: Voltage-gated inwardly rectifying potassium channel KCNH2 (Homo sapiens) (UniProt Q12809)
- Sequence (Q12809 whole entry, looked up): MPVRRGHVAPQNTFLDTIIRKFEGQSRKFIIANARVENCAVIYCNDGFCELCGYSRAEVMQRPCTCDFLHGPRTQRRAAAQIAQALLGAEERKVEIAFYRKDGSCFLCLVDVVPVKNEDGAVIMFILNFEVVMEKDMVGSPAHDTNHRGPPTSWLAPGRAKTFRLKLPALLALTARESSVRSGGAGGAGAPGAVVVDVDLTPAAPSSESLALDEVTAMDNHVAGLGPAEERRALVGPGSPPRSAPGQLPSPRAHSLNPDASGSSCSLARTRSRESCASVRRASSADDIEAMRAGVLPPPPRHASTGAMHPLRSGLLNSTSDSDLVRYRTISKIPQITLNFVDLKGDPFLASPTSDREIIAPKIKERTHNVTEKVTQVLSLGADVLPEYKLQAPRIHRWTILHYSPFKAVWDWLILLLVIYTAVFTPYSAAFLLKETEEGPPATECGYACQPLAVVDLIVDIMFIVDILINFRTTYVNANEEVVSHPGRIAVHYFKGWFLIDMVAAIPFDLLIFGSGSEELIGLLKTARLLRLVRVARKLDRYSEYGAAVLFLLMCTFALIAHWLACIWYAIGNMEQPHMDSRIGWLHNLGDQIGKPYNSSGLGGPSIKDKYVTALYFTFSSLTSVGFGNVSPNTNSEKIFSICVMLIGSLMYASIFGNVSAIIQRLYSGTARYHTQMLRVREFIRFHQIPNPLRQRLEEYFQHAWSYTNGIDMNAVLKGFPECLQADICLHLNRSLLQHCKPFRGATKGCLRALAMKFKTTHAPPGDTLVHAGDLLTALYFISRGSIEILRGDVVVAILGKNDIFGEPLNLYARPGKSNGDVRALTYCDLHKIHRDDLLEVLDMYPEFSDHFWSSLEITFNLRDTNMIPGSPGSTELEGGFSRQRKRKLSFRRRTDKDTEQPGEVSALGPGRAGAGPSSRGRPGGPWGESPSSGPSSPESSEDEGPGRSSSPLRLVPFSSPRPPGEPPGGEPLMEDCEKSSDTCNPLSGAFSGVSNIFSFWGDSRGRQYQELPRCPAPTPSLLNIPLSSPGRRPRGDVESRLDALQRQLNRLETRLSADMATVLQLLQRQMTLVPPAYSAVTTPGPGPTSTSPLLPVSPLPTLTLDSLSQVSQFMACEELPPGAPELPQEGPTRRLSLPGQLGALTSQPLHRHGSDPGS
- ASSAY PROCEDURE: qHTS Assay for Small Molecule Inhibitors of the Human hERG Channel Activity (AID 588834);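 further: lower thallium flux fluorescence means stronger hERG block; nearly all actives have a fitted effect of over 50% in size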
- ASSAY CONDITIONS: U2OS BacMam hERG, FluxOR thallium flux fluorescence; series mostly up to 92.2 µM
Records with an inconclusive call do not appear. Activity calls are given as the source filed them. Calls come from the whole dose curve; as a rule, active = well fitted inhibition curve with a large enough effect; inconclusive = small, poorly fitted or top-dose-only effect; inactive = flat fitted curve, though single readings scatter.
Log the outcome using a class from YES (active), NO (inactive)

Query: Which result was noted for this molecule in the test: `CC(C)(C)OOC(C)(C)C`
Response: NO

Query: Which result was noted for this molecule in the test: `c1ccc2c(c1)CCCC2`
Response: NO

Query: Which result was noted for this molecule in the test: `N#CCCCl`
Response: NO

Query: Which result was noted for this molecule in the test: `ClC(Cl)=C(Cl)C(Cl)=C(Cl)Cl`
Response: NO

Query: Which result was noted for this molecule in the test: `COC(=O)NC(=S)Nc1ccccc1NC(=S)NC(=O)OC`
Response: NO

Query: Which result was noted for this molecule in the test: `C=CCc1ccc(OC)cc1`
Response: NO

Query: Which result was noted for this molecule in the test: `COc1cc(C[C@@H](C)N)c(OC)cc1I`
Response: NO

Query: Which result was noted for this molecule in the test: `CCCN(CCC)C(=O)Cc1c(-c2ccc(Cl)cc2)nc2c(Cl)cc(Cl)cn12`
Response: NO

Query: Which result was noted for this molecule in the test: C#CCN(C)C(C)Cc1ccccc1 (configuration not stated)
Response: NO

Query: Which result was noted for this molecule in the test: `Nc1ccccc1Cl`
Response: NO

Query: Which result was noted for this molecule in the test: `C[N+](C)(C)Cc1ccccc1`
Response: NO

Query: Which result was noted for this molecule in the test: `Cc1ccc([N+](=O)[O-])cc1C`
Response: NO

Query: Which result was noted for this molecule in the test: `CCN(CC)c1ccccc1`
Response: NO

Query: Which result was noted for this molecule in the test: `c1ccc(-c2ccccc2)cc1`
Response: YES

Query: Which result was noted for this molecule in the test: CCCC[N+]1(C)C2CC(OC(=O)C(CO)c3ccccc3)CC1C1OC12 (configuration not stated)
Response: NO

Query: Which result was noted for this molecule in the test: C=C(C)C(=O)OCC1CO1 (configuration not stated)
Response: NO

Query: Which result was noted for this molecule in the test: C=CC1CC=CCC1 (configuration not stated)
Response: NO

Query: Which result was noted for this molecule in the test: `[O-][Br+2]([O-])O`
Response: NO

Query: Which result was noted for this molecule in the test: `Cc1ccccc1N`
Response: NO

Query: Which result was noted for this molecule in the test: `CC(C)(OO)c1ccccc1`
Response: NO

Query: Which result was noted for this molecule in the test: C[C@]12CC[C@H]3[C@@H](CCC4C[C@H](O)CC[C@@]43C)[C@@H]1CC[C@@H]2O (some centres not stated)
Response: NO

Query: Which result was noted for this molecule in the test: `C=C(C)C#N`
Response: NO

Query: Which result was noted for this molecule in the test: `NC(=S)Nc1ccccc1`
Response: NO

Query: Which result was noted for this molecule in the test: CCCN1CCCC(c2cccc(O)c2)C1 (configuration not stated)
Response: NO

Query: Which result was noted for this molecule in the test: `ClC(Cl)(Cl)c1ccccc1`
Response: NO

Query: Which result was noted for this molecule in the test: `Brc1ccc(Oc2cc(Br)c(Br)cc2Br)c(Br)c1`
Response: NO

Query: Which result was noted for this molecule in the test: `CCCCCCCC(=O)Cl`
Response: NO

Query: Which result was noted for this molecule in the test: `C/C=C/c1ccc2c(c1)OCO2`
Response: NO

Query: Which result was noted for this molecule in the test: `COc1cc(C=C(C#N)C#N)cc(O)c1O`
Response: NO

Query: Which result was noted for this molecule in the test: `C[C@H]1OC[C@@H](C[N+](C)(C)C)O1`
Response: NO

Query: Which result was noted for this molecule in the test: `Cc1ccc2ccccc2c1`
Response: NO

Query: Which result was noted for this molecule in the test: OCC1CO1 (configuration not stated)
Response: NO
